This collection of values is drawn from paper PMC8151276.

biological target: VIPR2 (Homo sapiens, UniProt P41587); construct: purchased Promega (in-house HiBiT-GPCR construct library, NanoBRET); experiment: NanoBRET screen HiBiT-VIPR2 in HEK293; format: binding; conditions: VIPR2; tracer 0.1μM
Sequence (P41587 24-438): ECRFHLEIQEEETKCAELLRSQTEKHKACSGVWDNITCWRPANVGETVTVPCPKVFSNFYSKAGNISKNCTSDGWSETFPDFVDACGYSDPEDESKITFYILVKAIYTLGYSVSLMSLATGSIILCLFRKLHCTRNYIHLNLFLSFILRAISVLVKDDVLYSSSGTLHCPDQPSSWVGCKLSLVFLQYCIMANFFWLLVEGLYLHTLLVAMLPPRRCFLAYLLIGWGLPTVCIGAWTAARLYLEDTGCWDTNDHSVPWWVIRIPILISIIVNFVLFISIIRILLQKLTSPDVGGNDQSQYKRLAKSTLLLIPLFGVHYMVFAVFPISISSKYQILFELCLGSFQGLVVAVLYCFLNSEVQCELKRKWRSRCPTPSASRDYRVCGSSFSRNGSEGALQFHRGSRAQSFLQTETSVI
NanoBRET Fold Response by entry:
Answer with the value's number alone.

In the examples that follow, each entry is paired with its recorded NanoBRET Fold Response.
{"MOLECULE": "CC(C)N(CC[C@H](c1ccccc1)c1cc(CCNC(=O)c2ccc(CNC(=O)CCc3ccc4n3[B-](F)(F)[N+]3=C(c5ccc[nH]5)C=CC3=C4)cc2)ccc1O)C(C)C", "TESTED_TARGET": "VIPR2 (Homo sapiens, UniProt P41587)", "OUTCOME_MEASURE": "NanoBRET Fold Response", "MEASUREMENT": 0.98}
{"MOLECULE": "O=C(CCc1ccc2n1[B-](F)(F)[N+]1=C(c3ccc[nH]3)C=CC1=C2)NCc1ccc(C(=O)NCCOCCC(=O)N[C@@H]2CC[C@@]3(O)[C@H]4Cc5ccc(O)c6c5[C@@]3(CCN4CC3CC3)[C@H]2O6)cc1 [Naltrexone-3-NB590]", "TESTED_TARGET": "VIPR2 (Homo sapiens, UniProt P41587)", "OUTCOME_MEASURE": "NanoBRET Fold Response", "MEASUREMENT": 1.17}
{"MOLECULE": "COc1ccccc1N1CCN(CCCCN2C(=O)c3ccc(CNC(=O)CCOCCNC(=O)c4ccc(CNC(=O)CCc5ccc6n5[B-](F)(F)[N+]5=C(c7ccc[nH]7)C=CC5=C6)cc4)cc3C2=O)CC1", "TESTED_TARGET": "VIPR2 (Homo sapiens, UniProt P41587)", "OUTCOME_MEASURE": "NanoBRET Fold Response", "MEASUREMENT": 0.98}

# input for lookup
Please give the measured NanoBRET Fold Response for this molecule: "CC(C)N(CC[C@H](c1ccccc1)c1cc(CCNC(=O)CCOCCOCCOCCOCCNC(=O)CCc2ccc3n2[B-](F)(F)[N+]2=C(c4ccc[nH]4)C=CC2=C3)ccc1O)C(C)C"
0.98

---

target: NPFFR1 (Homo sapiens, UniProt Q9GZQ6); construct: purchased Promega (in-house HiBiT-GPCR construct library, NanoBRET); test: NanoBRET screen HiBiT-NPFFR1 in HEK293; assay type: binding; details: NPFFR1; tracer 0.1μM
Sequence (Q9GZQ6 whole entry): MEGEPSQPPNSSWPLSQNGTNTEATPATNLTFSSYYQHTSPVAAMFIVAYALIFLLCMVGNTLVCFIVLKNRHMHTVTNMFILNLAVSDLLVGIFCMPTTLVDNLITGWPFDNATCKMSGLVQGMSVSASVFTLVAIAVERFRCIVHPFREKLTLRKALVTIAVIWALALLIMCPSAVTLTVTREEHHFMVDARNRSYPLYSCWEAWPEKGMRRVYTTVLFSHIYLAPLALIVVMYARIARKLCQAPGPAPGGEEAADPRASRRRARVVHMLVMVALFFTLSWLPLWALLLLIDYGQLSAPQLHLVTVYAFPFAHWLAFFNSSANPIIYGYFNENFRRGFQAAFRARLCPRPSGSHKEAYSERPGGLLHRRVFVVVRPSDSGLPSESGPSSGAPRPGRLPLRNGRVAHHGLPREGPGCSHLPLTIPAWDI
OUTCOME_MEASURE: NanoBRET Fold Response
Please respond with just the number, no unit label.

# annotated cases, reported NanoBRET Fold Response shown
{"SMILES_INPUT": "O=C(CCOCCOCCOCCOCCNC(=O)CCc1ccc2n1[B-](F)(F)[N+]1=C(c3ccc[nH]3)C=CC1=C2)NCCCN1CCN(C2=Nc3ccccc3Oc3ccc(Cl)cc32)CC1", "NanoBRET Fold Response": 0.98}
{"SMILES_INPUT": "CCCn1c(=O)c2[nH]c(-c3ccc(OCC(=O)NCCNC(=O)CCOCCNC(=O)c4ccc(CNC(=O)CCc5ccc6n5[B-](F)(F)[N+]5=C(c7ccc[nH]7)C=CC5=C6)cc4)cc3)nc2n(CCC)c1=O", "NanoBRET Fold Response": 0.99}

Next compound, NanoBRET Fold Response to be filled in.
Find the recorded NanoBRET Fold Response belonging to "O=C(CCc1ccc2n1[B-](F)(F)[N+]1=C(c3ccc[nH]3)C=CC1=C2)NCCOCCOCCNC(=O)OCCOCCN1CCN(C2=Nc3ccccc3Sc3ccccc32)CC1" and report it.
0.99

---

biological target: SSTR2 (Homo sapiens); construct: purchased Promega (in-house HiBiT-GPCR construct library, NanoBRET); experiment: NanoBRET screen HiBiT-SSTR2 in HEK293; format: binding; settings: SSTR2; tracer 0.1μM
Sequence (P30874 whole entry): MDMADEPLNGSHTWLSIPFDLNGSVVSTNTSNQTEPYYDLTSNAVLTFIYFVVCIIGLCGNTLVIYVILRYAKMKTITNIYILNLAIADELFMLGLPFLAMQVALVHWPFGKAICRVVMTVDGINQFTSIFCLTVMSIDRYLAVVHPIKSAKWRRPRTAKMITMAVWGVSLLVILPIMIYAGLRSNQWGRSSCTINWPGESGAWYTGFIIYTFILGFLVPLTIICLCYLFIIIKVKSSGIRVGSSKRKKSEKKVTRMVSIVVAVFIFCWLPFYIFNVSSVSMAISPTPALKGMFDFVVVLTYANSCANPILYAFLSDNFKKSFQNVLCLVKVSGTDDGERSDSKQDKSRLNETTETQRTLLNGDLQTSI
OUTCOME_MEASURE: NanoBRET Fold Response
Kindly provide the number alone.

{"COMPOUND": "N#CN=C(NCCCOc1cccc(CN2CCCCC2)c1)NCCNC(=O)CCOCCOCCOCCOCCNC(=O)CCc1ccc2n1[B-](F)(F)[N+]1=C(c3ccc[nH]3)C=CC1=C2", "NanoBRET Fold Response": 0.98}

Tell me the measured NanoBRET Fold Response of "COc1ccccc1N1CCN(CCCCN2C(=O)c3ccc(CNC(=O)CCOCCOCCOCCOCCNC(=O)CCc4ccc5n4[B-](F)(F)[N+]4=C(c6ccc[nH]6)C=CC4=C5)cc3C2=O)CC1" , please.
0.99

Look up NanoBRET Fold Response: Cc1nc2n(c(=O)c1CCN1CCC(c3noc4cc(F)ccc34)CC1)CCCC2OC(=O)NCCOCCOCCOCCOCCNC(=O)CCc1ccc2n1[B-](F)(F)[N+]1=C(c3ccc[nH]3)C=CC1=C2 (stereo not drawn)
0.98

---

Listing of recorded NanoBRET Fold Response by entry.
target: NPFFR2 (Homo sapiens, UniProt Q9Y5X5); construct: purchased Promega (in-house HiBiT-GPCR construct library, NanoBRET); assay: NanoBRET screen HiBiT-NPFFR2 in HEK293; type: binding; conditions: NPFFR2; tracer 0.1μM
Sequence (Q9Y5X5 whole entry): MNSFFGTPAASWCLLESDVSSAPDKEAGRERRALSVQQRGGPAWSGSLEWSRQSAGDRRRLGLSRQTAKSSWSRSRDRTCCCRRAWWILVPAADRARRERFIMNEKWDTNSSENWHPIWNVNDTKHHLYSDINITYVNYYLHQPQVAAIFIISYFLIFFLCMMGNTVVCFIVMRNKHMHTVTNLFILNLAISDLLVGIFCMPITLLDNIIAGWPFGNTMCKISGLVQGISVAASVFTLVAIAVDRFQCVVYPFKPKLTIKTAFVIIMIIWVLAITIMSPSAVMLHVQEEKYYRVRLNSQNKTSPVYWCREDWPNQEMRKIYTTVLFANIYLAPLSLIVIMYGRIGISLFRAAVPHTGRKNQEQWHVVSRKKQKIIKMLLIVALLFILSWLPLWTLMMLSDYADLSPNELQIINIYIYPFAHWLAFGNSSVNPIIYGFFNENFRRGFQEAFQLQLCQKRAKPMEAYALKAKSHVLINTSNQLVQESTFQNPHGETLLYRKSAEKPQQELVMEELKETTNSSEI

{"COMPOUND": "CCCn1c(=O)c2[nH]c(-c3ccc(OCC(=O)NCCNC(=O)CCOCCNC(=O)c4ccc(CNC(=O)CCc5ccc6n5[B-](F)(F)[N+]5=C(c7ccc[nH]7)C=CC5=C6)cc4)cc3)nc2n(CCC)c1=O", "OUTCOME_MEASURE": "NanoBRET Fold Response", "MEASUREMENT": 1.02}
{"COMPOUND": "COc1ccccc1N1CCN(CCCCN2C(=O)c3ccc(CNC(=O)CCOCCNC(=O)c4ccc(CNC(=O)CCc5ccc6n5[B-](F)(F)[N+]5=C(c7ccc[nH]7)C=CC5=C6)cc4)cc3C2=O)CC1", "OUTCOME_MEASURE": "NanoBRET Fold Response", "MEASUREMENT": 1.02}
{"COMPOUND": "Cc1nc2n(c(=O)c1CCN1CCC(c3noc4cc(F)ccc34)CC1)CCCC2OC(=O)NCCOCCOCCOCCOCCNC(=O)CCc1ccc2n1[B-](F)(F)[N+]1=C(c3ccc[nH]3)C=CC1=C2 (stereo not shown)", "OUTCOME_MEASURE": "NanoBRET Fold Response", "MEASUREMENT": 1.02}

Name the recorded NanoBRET Fold Response for "N#CN=C(NCCCOc1cccc(CN2CCCCC2)c1)NCCNC(=O)CCOCCOCCOCCOCCNC(=O)CCc1ccc2n1[B-](F)(F)[N+]1=C(c3ccc[nH]3)C=CC1=C2" .
0.98

Would you mind telling me what NanoBRET Fold Response value was observed for "Cc1cc2c(s1)Nc1ccccc1N=C2N1CCN(CCCNC(=O)CCOCCOCCOCCOCCNC(=O)CCc2ccc3n2[B-](F)(F)[N+]2=C(c4ccc[nH]4)C=CC2=C3)CC1" ?
0.98

Which measured NanoBRET Fold Response value corresponds to "CC(C)N(CC[C@H](c1ccccc1)c1cc(CCNC(=O)c2ccc(CNC(=O)CCc3ccc4n3[B-](F)(F)[N+]3=C(c5ccc[nH]5)C=CC3=C4)cc2)ccc1O)C(C)C" ?
1.00

So what does the record say about NanoBRET Fold Response for "CC(C)N(CC[C@H](c1ccccc1)c1cc(CCNC(=O)CCOCCOCCOCCOCCNC(=O)CCc2ccc3n2[B-](F)(F)[N+]2=C(c4ccc[nH]4)C=CC2=C3)ccc1O)C(C)C" ?
0.98
